Values from ChEMBL document CHEMBL4152377

molecular target: Endothelial PAS domain-containing protein 1 (Homo sapiens, UniProt Q99814); experiment: Antagonist activity at HIF-2alpha in human 786-O cells assessed as reduction in VEGFA concentration after 24 hrs by ELISA; assay type: cell-based
Sequence (Q99814 whole entry, the tested form may be a part): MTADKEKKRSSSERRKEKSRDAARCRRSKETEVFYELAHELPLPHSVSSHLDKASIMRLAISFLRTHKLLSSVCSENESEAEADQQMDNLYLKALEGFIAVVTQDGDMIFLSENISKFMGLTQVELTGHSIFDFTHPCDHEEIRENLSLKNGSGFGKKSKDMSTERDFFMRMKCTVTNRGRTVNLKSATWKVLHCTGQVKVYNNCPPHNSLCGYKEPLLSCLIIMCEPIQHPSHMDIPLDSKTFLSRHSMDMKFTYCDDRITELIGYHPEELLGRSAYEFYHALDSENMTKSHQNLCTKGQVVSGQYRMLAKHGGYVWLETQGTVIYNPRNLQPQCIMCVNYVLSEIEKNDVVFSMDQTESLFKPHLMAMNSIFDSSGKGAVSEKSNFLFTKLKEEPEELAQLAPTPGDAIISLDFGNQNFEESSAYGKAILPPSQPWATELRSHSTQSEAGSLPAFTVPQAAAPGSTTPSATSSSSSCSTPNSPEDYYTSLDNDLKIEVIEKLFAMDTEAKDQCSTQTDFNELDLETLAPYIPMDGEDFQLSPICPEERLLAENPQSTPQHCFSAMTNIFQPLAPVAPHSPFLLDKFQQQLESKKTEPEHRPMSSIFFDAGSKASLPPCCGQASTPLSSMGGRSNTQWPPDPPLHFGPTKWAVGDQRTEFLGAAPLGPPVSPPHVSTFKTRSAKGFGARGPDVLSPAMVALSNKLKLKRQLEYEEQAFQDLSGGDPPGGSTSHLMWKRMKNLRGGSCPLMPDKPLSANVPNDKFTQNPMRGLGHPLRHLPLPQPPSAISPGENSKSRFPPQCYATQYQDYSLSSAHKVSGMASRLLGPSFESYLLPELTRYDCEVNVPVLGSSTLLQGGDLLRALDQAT
Reported endpoint: EC50
A bare number is not enough; add the unit after it.

EC50 recorded for this compound, "N#Cc1cc(F)cc(Oc2ccc(S(=O)(=O)CF)c3c2CC(F)(F)[C@H]3O)c1" , is 20 nM

###

experiment: Protein binding in mouse plasma at 10 uM after 4 hrs by LC-MS/MS analysis; type: ADME, cell-free; details: read-out: PPB (converted)
Reported endpoint: fraction unbound at 4 h, 10 µM
Could you keep your reply to the number by itself?

Some solved cases for reference:
fraction unbound at 4 h, 10 µM recorded for this compound, "O=S(=O)(c1ccc(Oc2cncc(Cl)c2)c2c1[C@H](O)C(F)(F)C2)C(F)F" , is 0.06

fraction unbound at 4 h, 10 µM recorded for this compound, "N#Cc1cc(F)cc(Oc2ccc3c(c2C(F)F)[C@@H](O)C(F)(F)S3(=O)=O)c1" , is 0.11

Others:
fraction unbound at 4 h, 10 µM recorded for this compound, "N#Cc1cc(F)cc(Oc2ccc(S(=O)(=O)C(F)F)c3c2CC(F)(F)[C@H]3O)c1" , is 0.06

fraction unbound at 4 h, 10 µM recorded for this compound, "CS(=O)(=O)c1ccc(Oc2cc(F)cc(C#N)c2)c2c1[C@H](O)C(F)(F)C2" , is 0.26

fraction unbound at 4 h, 10 µM recorded for this compound, "N#Cc1cc(F)cc(Oc2ccc(S(=O)(=O)CF)c3c2CC(F)(F)[C@H]3O)c1" , is 0.11

###

half-life values by entry
test: Half life in Beagle dog at 10 mg/kg, po via gavage by UPLC analysis; assay type: ADME, organism-based, Canis lupus familiaris; conditions: in vivo
Form entry: value (h) — number only.

half-life recorded for this compound, "CS(=O)(=O)c1ccc(Oc2cc(F)cc(C#N)c2)c2c1[C@H](O)C(F)(F)C2" , is 11

Turning now to a further compound:
half-life recorded for this compound, "N#Cc1cc(F)cc(Oc2ccc3c(c2C(F)F)[C@@H](O)C(F)(F)S3(=O)=O)c1" , is 6.7

###

biological target: Cytochrome P450 3A4 (Homo sapiens)
Sequence (P08684 whole entry): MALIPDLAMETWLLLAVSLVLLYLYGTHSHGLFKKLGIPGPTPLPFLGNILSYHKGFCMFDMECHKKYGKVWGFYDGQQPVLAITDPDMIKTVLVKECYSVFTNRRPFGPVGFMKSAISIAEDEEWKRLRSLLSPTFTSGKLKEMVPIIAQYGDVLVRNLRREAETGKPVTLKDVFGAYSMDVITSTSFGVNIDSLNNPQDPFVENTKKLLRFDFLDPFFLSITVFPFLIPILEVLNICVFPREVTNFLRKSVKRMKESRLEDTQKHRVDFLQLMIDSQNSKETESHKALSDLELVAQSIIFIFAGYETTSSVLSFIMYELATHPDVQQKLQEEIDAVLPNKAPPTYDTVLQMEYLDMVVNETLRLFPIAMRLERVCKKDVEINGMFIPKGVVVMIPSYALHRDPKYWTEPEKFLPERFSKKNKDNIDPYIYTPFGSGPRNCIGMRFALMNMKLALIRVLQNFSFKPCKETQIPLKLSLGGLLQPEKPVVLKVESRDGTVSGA
Reported endpoint: pIC50
Answer as the number alone; pIC50 is minus log10 of concentration in mol/L.

pIC50 recorded for this compound, "N#Cc1cc(F)cc(Oc2ccc3c(c2C(F)F)[C@@H](O)C(F)(F)S3(=O)=O)c1" , is 4.88

###

Sequence of the target: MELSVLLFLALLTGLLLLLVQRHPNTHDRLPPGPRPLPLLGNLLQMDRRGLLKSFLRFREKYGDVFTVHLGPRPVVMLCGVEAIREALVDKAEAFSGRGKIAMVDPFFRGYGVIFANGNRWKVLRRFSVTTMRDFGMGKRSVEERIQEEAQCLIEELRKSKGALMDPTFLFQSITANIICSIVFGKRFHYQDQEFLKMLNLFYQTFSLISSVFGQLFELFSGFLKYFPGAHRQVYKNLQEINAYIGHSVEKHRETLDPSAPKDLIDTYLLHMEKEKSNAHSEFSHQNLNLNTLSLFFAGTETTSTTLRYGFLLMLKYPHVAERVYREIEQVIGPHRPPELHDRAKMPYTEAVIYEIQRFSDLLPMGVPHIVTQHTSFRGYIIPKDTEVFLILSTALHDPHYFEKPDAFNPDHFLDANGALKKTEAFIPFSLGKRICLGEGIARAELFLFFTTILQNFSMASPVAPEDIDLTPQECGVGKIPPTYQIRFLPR
pIC50: −log10 of the molar value.
Reported endpoint: pIC50

pIC50 recorded for this compound, "N#Cc1cc(F)cc(Oc2ccc3c(c2C(F)F)[C@@H](O)C(F)(F)S3(=O)=O)c1" , is < 4.30

Others:
pIC50 recorded for this compound, "CS(=O)(=O)c1ccc(Oc2cc(F)cc(C#N)c2)c2c1[C@H](O)C(F)(F)C2" , is < 4.30

###

assay: Intrinsic clearance in dog liver microsomes at 1 uM measured up to 30 mins by LC-MS/MS analysis; format: ADME, Canis lupus familiaris, microsome; details: read-out: CLH
CLint scaled at 1 µM values by entry

CLint scaled at 1 µM recorded for this compound, "N#Cc1cc(F)cc(Oc2ccc3c(c2C(F)F)[C@@H](O)C(F)(F)S3(=O)=O)c1" , is < 5 mL/min/kg

Others:
CLint scaled at 1 µM recorded for this compound, "CS(=O)(=O)c1ccc(Oc2cc(F)cc(C#N)c2)c2c1[C@H](O)C(F)(F)C2" , is < 5 mL/min/kg

###

biological target: hERG (KCNH2) (Homo sapiens, UniProt Q12809); assay: Inhibition of human ERG expressed in mammalian cells at 10 uM after 3 mins by QPatch clamp assay; assay type: cell-based; details: mammalian cells that express human ERG
Sequence (Q12809 whole entry): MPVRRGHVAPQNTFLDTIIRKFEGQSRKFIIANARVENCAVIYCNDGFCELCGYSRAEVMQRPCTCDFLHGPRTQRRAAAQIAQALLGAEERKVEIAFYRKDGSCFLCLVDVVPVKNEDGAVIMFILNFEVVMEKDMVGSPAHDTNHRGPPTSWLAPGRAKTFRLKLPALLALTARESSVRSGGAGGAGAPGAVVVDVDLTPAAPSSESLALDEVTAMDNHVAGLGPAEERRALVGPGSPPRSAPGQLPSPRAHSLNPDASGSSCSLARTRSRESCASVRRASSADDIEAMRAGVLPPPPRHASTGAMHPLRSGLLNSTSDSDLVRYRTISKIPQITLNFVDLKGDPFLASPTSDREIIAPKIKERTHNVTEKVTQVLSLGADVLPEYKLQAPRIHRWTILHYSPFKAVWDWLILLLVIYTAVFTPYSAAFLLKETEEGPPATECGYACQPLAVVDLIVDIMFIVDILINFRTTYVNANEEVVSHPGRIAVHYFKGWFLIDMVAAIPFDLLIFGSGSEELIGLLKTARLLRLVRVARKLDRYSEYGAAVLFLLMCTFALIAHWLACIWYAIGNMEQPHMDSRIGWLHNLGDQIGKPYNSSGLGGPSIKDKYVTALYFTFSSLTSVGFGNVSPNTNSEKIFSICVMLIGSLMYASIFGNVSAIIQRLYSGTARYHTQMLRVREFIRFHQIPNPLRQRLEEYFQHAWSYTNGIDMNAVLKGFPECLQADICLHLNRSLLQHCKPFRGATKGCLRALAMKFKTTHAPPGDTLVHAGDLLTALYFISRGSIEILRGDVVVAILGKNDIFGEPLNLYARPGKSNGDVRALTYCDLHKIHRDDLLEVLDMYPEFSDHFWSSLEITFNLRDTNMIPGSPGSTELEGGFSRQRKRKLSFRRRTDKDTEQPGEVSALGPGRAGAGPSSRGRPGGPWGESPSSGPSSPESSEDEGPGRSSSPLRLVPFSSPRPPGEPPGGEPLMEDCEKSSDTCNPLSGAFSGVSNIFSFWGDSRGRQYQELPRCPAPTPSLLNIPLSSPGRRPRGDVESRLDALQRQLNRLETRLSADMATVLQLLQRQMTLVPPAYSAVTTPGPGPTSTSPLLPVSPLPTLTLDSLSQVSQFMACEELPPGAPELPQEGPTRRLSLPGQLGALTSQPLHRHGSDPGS
Reported endpoint: inhibition at 0.05 h, 10 µM (%)
Form entry: value (%) — number only.

inhibition at 0.05 h, 10 µM recorded for this compound, "N#Cc1cc(F)cc(Oc2ccc3c(c2C(F)F)[C@@H](O)C(F)(F)S3(=O)=O)c1" , is 17

Turning now to a further compound:
inhibition at 0.05 h, 10 µM recorded for this compound, "CS(=O)(=O)c1ccc(Oc2cc(F)cc(C#N)c2)c2c1[C@H](O)C(F)(F)C2" , is 8.2

###

fraction unbound at 4 h, 10 µM values by entry
test: Protein binding in monkey plasma at 10 uM after 4 hrs by LC-MS/MS analysis; type: ADME, cell-free, Macaca mulatta; conditions: rhesus monkey, read-out: PPB (converted)
Could you keep your reply to the number by itself?

fraction unbound at 4 h, 10 µM recorded for this compound, "CS(=O)(=O)c1ccc(Oc2cc(F)cc(C#N)c2)c2c1[C@H](O)C(F)(F)C2" , is 0.26

Turning now to a further compound:
fraction unbound at 4 h, 10 µM recorded for this compound, "N#Cc1cc(F)cc(Oc2ccc3c(c2C(F)F)[C@@H](O)C(F)(F)S3(=O)=O)c1" , is 0.38

###

fraction unbound at 4 h, 10 µM values by entry
test: Protein binding in dog plasma at 10 uM after 4 hrs by LC-MS/MS analysis; type: ADME, cell-free, Canis lupus familiaris; conditions: read-out: PPB (converted)
Could you keep your reply to the number by itself?

fraction unbound at 4 h, 10 µM recorded for this molecule, "N#Cc1cc(F)cc(Oc2ccc3c(c2C(F)F)[C@@H](O)C(F)(F)S3(=O)=O)c1" , is 0.18

Turning now to a further molecule:
fraction unbound at 4 h, 10 µM recorded for this molecule, "CS(=O)(=O)c1ccc(Oc2cc(F)cc(C#N)c2)c2c1[C@H](O)C(F)(F)C2" , is 0.25

###

Vd values by entry
assay: Volume of distribution at steady state in Sprague-Dawley rat at 3 mg/kg, iv by UPLC analysis; assay type: ADME, organism-based; settings: in vivo, read-out: Vdss
Form entry: value (L/kg) — number only.

Some solved cases for reference:
Vd recorded for this compound, "CS(=O)(=O)c1ccc(Oc2cc(F)cc(C#N)c2)c2c1[C@H](O)C(F)(F)C2" , is 6.24

Vd recorded for this compound, "N#Cc1cc(F)cc(Oc2ccc3c(c2C(F)F)[C@@H](O)C(F)(F)S3(=O)=O)c1" , is 3.5

Vd recorded for this compound, "N#Cc1cc(F)cc(Oc2ccc(S(=O)(=O)C(F)F)c3c2CC(F)(F)[C@H]3O)c1" , is 5.55

Turning now to a further compound:
Vd recorded for this compound, "N#Cc1cc(F)cc(Oc2ccc(S(=O)(=O)CF)c3c2CC(F)(F)[C@H]3O)c1" , is 6.15

###

assay: Oral bioavailability in CD1 mouse at 10 mg/kg by UPLC analysis; type: ADME, organism-based; conditions: in vivo
bioavailability values by entry
Form entry: value (%) — number only.

Some solved cases for reference:
bioavailability recorded for this compound, "N#Cc1cc(F)cc(Oc2ccc3c(c2C(F)F)[C@@H](O)C(F)(F)S3(=O)=O)c1" , is 110

bioavailability recorded for this compound, "CS(=O)(=O)c1ccc(Oc2cc(F)cc(C#N)c2)c2c1[C@H](O)C(F)(F)C2" , is 110

bioavailability recorded for this compound, "N#Cc1cc(F)cc(Oc2ccc(S(=O)(=O)CF)c3c2CC(F)(F)[C@H]3O)c1" , is 91

bioavailability recorded for this compound, "N#Cc1cc(F)cc(Oc2ccc(S(=O)(=O)C(F)F)c3c2CC(F)(F)[C@H]3O)c1" , is 67

Others:
bioavailability recorded for this compound, "O=S(=O)(c1ccc(Oc2cncc(Cl)c2)c2c1[C@H](O)C(F)(F)C2)C(F)F" , is 101

###

Papp A→B at 1 h, 1 µM values by entry
assay: Apparent permeability across apical to basolateral side in MDCK-MDR1 cells at 1 uM after 1 hr by LC/MS/MS analysis; type: ADME, cell-based, Canis lupus familiaris; details: dog
Form entry: value (×10⁻⁶ cm/s) — number only.

Papp A→B at 1 h, 1 µM recorded for this compound, "N#Cc1cc(F)cc(Oc2ccc(S(=O)(=O)C(F)F)c3c2CC(F)(F)[C@H]3O)c1" , is 2.84

Papp A→B at 1 h, 1 µM recorded for this compound, "N#Cc1cc(F)cc(Oc2ccc3c(c2C(F)F)[C@@H](O)C(F)(F)S3(=O)=O)c1" , is 2.6

Papp A→B at 1 h, 1 µM recorded for this compound, "N#Cc1cc(F)cc(Oc2ccc(S(=O)(=O)CF)c3c2CC(F)(F)[C@H]3O)c1" , is 2.73

Papp A→B at 1 h, 1 µM recorded for this compound, "CS(=O)(=O)c1ccc(Oc2cc(F)cc(C#N)c2)c2c1[C@H](O)C(F)(F)C2" , is 2.98

Turning now to a further compound:
Papp A→B at 1 h, 1 µM recorded for this compound, "O=S(=O)(c1ccc(Oc2cncc(Cl)c2)c2c1[C@H](O)C(F)(F)C2)C(F)F" , is 2.79
